Quick list: Prototype remaining quantity (%) Mean per entry.
assay: Research on compound microsome: prototype remaining and transformation to Atrasentan in human liver microsomes (+NADPH); type: in vitro ADME; conditions: human liver microsome (+NADPH), 37° C., time 60 min
Unit % implied. Number only.

## Task Using the record for CCCCN(CCCC)C(=O)CN1C[C@H](c2ccc3c(c2)OCO3)[C@@H](C(=O)OC(C)OC(=O)OC[C@@H](O)CO)[C@@H]1c1ccc(OC)cc1 (stereo partly drawn) , report its Prototype remaining quantity (%) Mean.
## Result 0.7

***
## Task Using the record for CCCCN(CCCC)C(=O)CN1C[C@H](c2ccc3c(c2)OCO3)[C@@H](C(=O)OC(C)OC(=O)OCCNC)[C@@H]1c1ccc(OC)cc1 (stereo partly drawn) , report its Prototype remaining quantity (%) Mean.
## Result 0

## Task Using the record for CCCCN(CCCC)C(=O)CN1C[C@H](c2ccc3c(c2)OCO3)[C@@H](C(=O)O)[C@@H]1c1ccc(OC)cc1 [Atrasentan, reference compound] , report its Prototype remaining quantity (%) Mean.
## Result 50.3

## Task Using the record for CCCCN(CCCC)C(=O)CN1C[C@H](c2ccc3c(c2)OCO3)[C@@H](C(=O)OC(C)OC(=O)OC)[C@@H]1c1ccc(OC)cc1 (stereo partly drawn) , report its Prototype remaining quantity (%) Mean.
## Result 0

## Task Using the record for CCCCN(CCCC)C(=O)CN1C[C@H](c2ccc3c(c2)OCO3)[C@@H](C(=O)OC(C)OC(=O)OC(C)C)[C@@H]1c1ccc(OC)cc1 (stereo partly drawn) , report its Prototype remaining quantity (%) Mean.
## Result 0.06

## Task Using the record for CCCCN(CCCC)C(=O)CN1C[C@H](c2ccc3c(c2)OCO3)[C@@H](C(=O)OCOC(=O)OCC)[C@@H]1c1ccc(OC)cc1 , report its Prototype remaining quantity (%) Mean.
## Result 0.7

Hey, just so you know, these numbers are from patent US20250320198A1.
